tested on: S. cerevisiae Mot1-301 ts growth rescue, BacTiter-Glo ATP luminescence; assay: restored Mot1-301 yeast growth at 38.5C – whole organism, S. cerevisiae, Mot1-301 ts mutant, luminescence, dose retest, SUMOylation pathway inhibitor project, confirmation (AID 463204);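 also: growth at restrictive 38.5 degrees C of Mot1-301 OY566 strain; actives raise luminescence by restoring growth of the ts mutant at high temperature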
Active and inactive are the calls of the source.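 The calls were made as follows: active = AC50 no more than ten times the top concentration tested, that is within one log above it; inconclusive = flat curve fit with activity between 30% and 70%, or invalid poor fit; inactive = AC50 beyond ten times the top tested dose.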
The reply should name one outcome from active, inactive

Consider the following illustrative entries.
{"columns": ["Compound", "Label Value"],
 "data": [
  ["CCCOc1ccc(N2C(=O)CC(N3CCC(C(=O)OCC)CC3)C2=O)cc1 (stereo not given)", "active"],
  ["CC(=O)Nc1sc2c(c1C(c1ccc(F)cc1)N1CCOCC1)CCCC2 (stereo not given)", "active"],
  ["COc1ccc(-c2nc3c(c(SCC(=O)N4CCOCC4)n2)Cc2c(CO)cnc(C)c2O3)cc1", "inactive"],
  ["COC(=O)c1ccc(SCC(=O)N2CCC(C)CC2)c([N+](=O)[O-])c1", "inactive"]
]}

Please turn your attention to the following entry.
Test call, this compound: "CCn1cc(C(=O)N2CCN(c3ccc(OC)cc3)CC2)c(=O)c2cc(S(=O)(=O)N3CCOCC3)ccc21"
inactive

###

tested on: S. cerevisiae Mot1-301 ts growth rescue, BacTiter-Glo ATP luminescence; experiment: restored Mot1-301 yeast growth at 38.5C – whole organism, S. cerevisiae, Mot1-301 ts mutant, luminescence, dose retest, SUMOylation pathway inhibitor project, confirmation (AID 463204);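 also: growth at restrictive 38.5 degrees C of Mot1-301 OY566 strain; actives raise luminescence by restoring growth of the ts mutant at high temperature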
The source made the active and inactive calls.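 How the source made its calls: active means AC50 no more than ten times the top concentration tested, that is within one log above it; inconclusive means flat curve fit with activity between 30% and 70%, or invalid poor fit; inactive means AC50 beyond ten times the top tested dose.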
Thanks in advance; please answer with one of these: yes (active), no (inactive)

Tell me the assay call for "Cc1ccc(C(=O)NCCCNC(=O)c2ccc(C)nc2)cc1" please.
no

Call for entry "CS(=O)(=O)N(CCc1ccccc1)CC(=O)NCc1cccnc1" :
no

Hello, I am checking results. What call was entered for COC(=O)c1ccc(N2C(=O)CC(NCc3ccccc3)C2=O)cc1 (stereo not given) ?
no

Hi team, can someone confirm the assay call for "CCOC(=O)c1sc(NC(=O)CSc2n[nH]c(-c3ccc(Cl)cc3Cl)n2)c(C#N)c1C" ?
no

Assay outcome for COCCNC(=O)C(c1ccc(C)cc1)N(C(=O)CCC(=O)Nc1ccccn1)c1cccc(C)c1 (stereo not given) : what was it?
no

Hello, I am checking results. What call was entered for "Cc1cc(C(=O)COc2cccc3cccnc23)c(C)n1C" ?
no

Write down the call the test reported for this compound. Item: "COc1ccc2[nH]c(C(=O)N/N=C/c3ccccc3OC)cc2c1"
no

I'd appreciate the recorded outcome for NC(=O)CC(NC(=O)Cc1cccc2ccccc12)c1ccc(NCCCN2CCCC2=O)c([N+](=O)[O-])c1 (stereo not given) from this test.
no

Kindly provide the recorded test outcome for the following compound: "CC(C)c1cc(N2CCOCC2)n2ncc(-c3ccccc3)c2n1"
no

Hi team, can someone confirm the assay call for "COc1cccc(OC)c1C(=O)Nc1ccc2c(c1)N(S(=O)(=O)c1cccs1)CCC2" ?
no

So what was the verdict on "Cc1ccccc1NC(=O)c1ccccc1NC(=O)c1ccco1" in this test?
no

Returns: the outcome recorded for COc1cc2c(cc1OC)C(c1ccccc1C)CC(=O)N2 (stereo not given) in this assay.
no

What was the test verdict on CC1CCN(C(=O)Cn2cnc3c2c(=O)n(C)c(=O)n3C)c2ccccc2S1 (stereo not given) ?
yes

###

system: S. cerevisiae Mot1-301 ts growth rescue, BacTiter-Glo ATP luminescence; experiment: restored Mot1-301 yeast growth at 38.5C – whole organism, S. cerevisiae, Mot1-301 ts mutant, luminescence, dose retest, SUMOylation pathway inhibitor project, confirmation (AID 463204);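 also: growth at restrictive 38.5 degrees C of Mot1-301 OY566 strain; actives raise luminescence by restoring growth of the ts mutant at high temperature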
Active and inactive are the calls of the source.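 The calls were made as follows: active = AC50 no more than ten times the top concentration tested, that is within one log above it; inconclusive = flat curve fit with activity between 30% and 70%, or invalid poor fit; inactive = AC50 beyond ten times the top tested dose.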
Property Label: AC50

{"columns": ["Molecule", "AC50"],
 "data": [
  ["c1ccc(-c2nc(NCc3ccco3)c3ccccc3n2)nc1", "> 42 µM (inactive)"],
  ["C#CCn1c(=NC(=O)CN2C(=O)CCC2=O)sc2cccc(OC)c21", "> 42 µM (inactive)"]
]}

Form: molecule = COC(=O)Nc1ccc(S(=O)(=O)N2CCCC(C(=O)NC3CCS(=O)(=O)C3)C2)cc1 (stereo unspecified) ; AC50 = > 42 µM (inactive)

What the record says about "Cn1c(O)c(C(c2ccccn2)c2c(O)n(C)c(=S)n(C)c2=O)c(=O)n(C)c1=S" : AC50 is > 42 µM (inactive)

get_value(item= OC1CN=C2CCCc3c2n(c2ccc(Cl)cc32)C1 (stereo unspecified) , readout=AC50) returns > 42 µM (inactive)

The measured AC50 associated with "Cc1ccnc(NC(=O)CC(c2ccccc2)c2ccccc2)n1" reads 29.8 µM

Entry source: PubChem BioAssay AID463204
